Value source: paper PMC3751551

- ASSAYED SYSTEM: T1, Vm-EYFP, P05923
- T1 chain: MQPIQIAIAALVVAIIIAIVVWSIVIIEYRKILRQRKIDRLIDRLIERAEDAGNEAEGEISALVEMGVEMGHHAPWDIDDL
- METHOD: BRET assay
- APPLIED CONDITIONS: chain shown with the change; HEK293T cells; parent: est. 1.6; read off a plot
METRIC: response

1) Rluc-BST2, Q10589 I36A (protein) MASTSYDYCRVPMEDGDKRCKLLLGIGILVLLIIVALGVPLIIFTIKANSEACRDGLRAVMECRNVTHLLQQELTEAQKGFQDVEAQAATCNHTVMALMASLDAEKAQGQKKVEELEGEITTLNHKLQDASAEVERLRRENQVLSVRIADKKYYPSSQDSS = 1.5
